Data provenance: ChEMBL document CHEMBL5331130

Test system: Neisseria meningitidis
Test: Antimicrobial activity against Neisseria meningitidis infected in mouse RAW264.7 cells assessed as reduction in bacteria-induced cytotoxicity at 50 uM after 24 hrs by lactate dehydrogenase release assay relative to control
Type: functional
Set-up: scale not given: the % may be the effect or the level left

[
  {
    "compound": "O=C(NCc1cccnc1)[C@@H](Cc1ccccc1)OC(=O)[C@@H]1CCCCN1S(=O)(=O)c1ccccc1",
    "unit.annotation": "%",
    "Activity": 26
  },
  {
    "compound": "CC(C)C[C@H](OC(=O)C1CCCCN1S(=O)(=O)Cc1ccccc1)C(=O)NCc1cccnc1 (mixture of isomers)",
    "unit.annotation": "%",
    "Activity": 36.9
  },
  {
    "compound": "CC(C)C[C@H](NC(=O)[C@@H]1CCCCN1S(=O)(=O)Cc1ccc(F)cc1)C(=O)NCc1cccnc1",
    "unit.annotation": "%",
    "Activity": 56.2
  },
  {
    "compound": "O=C(NCc1cccnc1)C(CCc1cccnc1)OC(=O)[C@@H]1CCCCN1S(=O)(=O)c1ccccc1 (mixture of isomers)",
    "unit.annotation": "%",
    "Activity": 84.4
  },
  {
    "compound": "O=C(N[C@@H](Cc1ccccc1)C(=O)NCc1ccc[n+]([O-])c1)C1CCCCN1S(=O)(=O)Cc1ccccc1 (mixture of isomers)",
    "unit.annotation": "%",
    "Activity": 76
  },
  {
    "compound": "COCCOc1cc(OCCOC)cc(C(=O)NCCOC(=O)[C@@H]2CCCCN2S(=O)(=O)Cc2ccccc2)c1",
    "unit.annotation": "%",
    "Activity": 19.6
  },
  {
    "compound": "O=C(NCc1cccnc1)[C@H](Cc1ccccc1)NC(=O)[C@@H]1CCCCN1S(=O)(=O)Cc1ccccc1",
    "unit.annotation": "%",
    "Activity": 25
  }
]

###

Tested on: Burkholderia pseudomallei
Test: Inhibition of Burkholderia pseudomallei Mip PPIase activity assessed as remaining activity using Suc-ALPF-pNA substrate measured at 400 nM by protease coupled assay relative to control

[
  {
    "molecule": "O=C(NCc1cccnc1)[C@H](Cc1ccccc1)OC(=O)[C@@H]1CCCCN1S(=O)(=O)c1ccccc1",
    "study.target": "Burkholderia pseudomallei",
    "Activity": "7%"
  },
  {
    "molecule": "CC(C)[C@H](OC(=O)C1CCCCN1S(=O)(=O)Cc1ccccc1)C(=O)NCc1cccnc1 (mixture of isomers)",
    "study.target": "Burkholderia pseudomallei",
    "Activity": "13.9%"
  },
  {
    "molecule": "CC(C)C[C@H](OC(=O)[C@@H]1CCCCN1S(=O)(=O)Cc1ccccc1)C(=O)NCc1cccnc1",
    "study.target": "Burkholderia pseudomallei",
    "Activity": "4.8%"
  },
  {
    "molecule": "O=C(NCc1cccnc1)[C@@H](CCc1ccccc1)NC(=O)[C@@H]1CCCCN1S(=O)(=O)Cc1ccccc1",
    "study.target": "Burkholderia pseudomallei",
    "Activity": "23.4%"
  },
  {
    "molecule": "O=C(NCc1cccnc1)[C@@H](Cc1ccccc1)OC(=O)[C@@H]1CCCCN1S(=O)(=O)c1ccccc1",
    "study.target": "Burkholderia pseudomallei",
    "Activity": "151%"
  },
  {
    "molecule": "O=C(NCc1cccnc1)[C@@H](Cc1ccccc1)NC(=O)[C@@H]1CCCCN1S(=O)(=O)Cc1ccccc1",
    "study.target": "Burkholderia pseudomallei",
    "Activity": "21.5%"
  },
  {
    "molecule": "CC(C)C[C@H](NC(=O)[C@@H]1CCCCN1S(=O)(=O)Cc1ccc(F)cc1)C(=O)NCc1ccc[n+]([O-])c1",
    "study.target": "Burkholderia pseudomallei",
    "Activity": "21%"
  },
  {
    "molecule": "O=C(NCCOC(=O)[C@@H]1CCCCN1S(=O)(=O)Cc1ccccc1)c1cccnc1",
    "study.target": "Burkholderia pseudomallei",
    "Activity": "50.3%"
  }
]
